Readings of pIC50 for the listed compounds
study target: CDK1/cyclin B (Homo sapiens, UniProt P06493)
Construct: made in house; host or cells: Sf9 insect cells (baculovirus)
Sequence (P06493 whole entry, species assumed): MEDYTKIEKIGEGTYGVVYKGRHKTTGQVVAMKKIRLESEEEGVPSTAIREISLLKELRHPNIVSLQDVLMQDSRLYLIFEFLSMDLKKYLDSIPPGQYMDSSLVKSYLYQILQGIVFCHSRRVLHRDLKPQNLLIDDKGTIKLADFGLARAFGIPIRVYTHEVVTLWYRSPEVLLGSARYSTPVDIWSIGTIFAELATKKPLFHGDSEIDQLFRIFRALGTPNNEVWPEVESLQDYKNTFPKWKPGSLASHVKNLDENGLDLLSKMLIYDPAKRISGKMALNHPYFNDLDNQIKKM
Sequence (P14635 whole entry partner, species assumed): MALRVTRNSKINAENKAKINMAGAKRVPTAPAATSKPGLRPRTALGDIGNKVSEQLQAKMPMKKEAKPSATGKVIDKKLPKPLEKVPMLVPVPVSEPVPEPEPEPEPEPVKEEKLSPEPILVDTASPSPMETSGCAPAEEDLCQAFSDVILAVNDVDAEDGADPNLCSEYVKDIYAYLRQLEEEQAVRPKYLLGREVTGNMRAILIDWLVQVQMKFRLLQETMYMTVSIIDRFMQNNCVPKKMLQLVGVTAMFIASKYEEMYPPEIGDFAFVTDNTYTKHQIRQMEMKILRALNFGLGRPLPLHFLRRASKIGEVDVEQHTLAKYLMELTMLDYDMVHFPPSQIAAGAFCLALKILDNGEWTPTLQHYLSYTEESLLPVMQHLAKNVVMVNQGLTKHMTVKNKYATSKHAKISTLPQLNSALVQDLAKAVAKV
measurement protocol: Kinase inhibition assay, recombinant kinase, [γ-33P]ATP
Format: biochemical
condition notes: read-out: Kinase inhibition IC50, CDK1
Scale explanation: pIC50 corresponds to minus log10 of a concentration expressed in moles per litre.

>>> measured_value("Nc1ccccc1-c1ccc(CNc2nc(NC3CCC(N)CC3)nc3c2ncn3C2CCCC2)cn1 (centres unmarked)")
7.00
>>> measured_value("NC1CCC(Nc2nc(NCc3ccc(-c4ccoc4)nc3)c3ncn(C4CCCC4)c3n2)CC1 (centres unmarked)")
7.18
>>> measured_value("NC1CCC(Nc2nc(NCc3ccc(-c4cccs4)cc3)c3ncn(C4CCCC4)c3n2)CC1 (centres unmarked)")
6.92

The measured pIC50 associated with OC1CCC(Nc2nc(NCc3ccc(-c4ccco4)nc3)c3ncn(C4CCCC4)c3n2)CC1 (centres unmarked) reads 6.67

// pIC50 value for COc1ccccc1-c1ccc(CNc2nc(NC3CCC(N)CC3)nc3c2ncn3C2CCCC2)cn1 (centres unmarked) : 6.93

The compound listed as NC1CCC(Nc2nc(NCc3ccc(-c4ccoc4)cc3)c3ncn(C4CCCC4)c3n2)CC1 (centres unmarked) shows pIC50 equal to 6.69

Memo: COc1ccccc1-c1ccc(CNc2nc(NC3CCC(N)CC3)nc3c2ncn3C2CCCC2)cc1 (centres unmarked) , reported pIC50: 6.52

Data point: NC1CCC(Nc2nc(NCc3ccc(-n4cccn4)cc3)c3ncn(C4CCCC4)c3n2)CC1 (centres unmarked) ; pIC50 = 7.24

====

Readings of melting point for the listed molecules

Sample records with melting point:
>>> measured_value("Clc1nc(NCc2ccc(-c3ccco3)nc2)c2ncn(C3CCCC3)c2n1 [BP116]")
"119 to 122 °C"
>>> measured_value("NC1CCC(Nc2nc(NCc3ccc(-c4ccsc4)nc3)c3ncn(C4CCCC4)c3n2)CC1 (stereo not drawn) [BP35]")
"139 to 140 °C"
>>> measured_value("Clc1nc(NCc2ccc(-n3cccn3)cc2)c2ncn(C3CCCC3)c2n1 [BP23]")
"165 to 167 °C"
>>> measured_value("NC1CCC(Nc2nc(NCc3ccc(-c4ccsc4)cc3)c3ncn(C4CCCC4)c3n2)CC1 (stereo not drawn) [BP5]")
"114 to 118 °C"
>>> measured_value("Clc1nc(NCc2ccc(-c3ccco3)cc2)c2ncn(C3CCCC3)c2n1 [BP118]")
"135 to 137 °C"

melting point reading for NC1CCC(Nc2nc(NCc3ccc(-c4cccs4)cc3)c3ncn(C4CCCC4)c3n2)CC1 (stereo not drawn) [BP2] : 225 to 226 °C

The recorded melting point for Clc1nc(NCc2ccc(Br)cc2)c2ncn(C3CCCC3)c2n1 [BP101] is 152 to 154 °C

Form field melting point, entry NC1CCC(Nc2nc(NCc3ccc(-c4cccc(F)c4)nc3)c3ncn(C4CCCC4)c3n2)CC1 (stereo not drawn) [BP19] : 121 to 122 °C

melting point measured on NC1CCC(Nc2nc(NCc3ccc(-c4ccoc4)cc3)c3ncn(C4CCCC4)c3n2)CC1 (stereo not drawn) [BP13] = 154 to 156 °C

====

Tested on: caspase-3/7 activity in PLC/PRF/5 cell line
measurement protocol: One-step cellular caspase-3/7 activity assay
Assay type: cell-based, human
condition notes: compound concentration 80 nM; 24 hours incubation; relative to 0 nM = 1.00
readout: Relative caspase-3/7 activity in PLC/PRF/5 cell line
I only need the number, thanks.

>>> measured_value("NC1CCC(Nc2nc(NCc3ccc(-c4ccccc4O)nc3)c3ncn(C4CCCC4)c3n2)CC1 (centres unmarked)")
2.66
>>> measured_value("NC1CCC(Nc2nc(NCc3ccc(-c4cccc(F)c4)cc3)c3ncn(C4CCCC4)c3n2)CC1 (centres unmarked)")
1.27
>>> measured_value("COc1ccccc1-c1ccc(CNc2nc(NC3CCC(N)CC3)nc3c2ncn3C2CCCC2)cn1 (centres unmarked)")
2.40
>>> measured_value("NC1CCC(Nc2nc(NCc3ccc(-c4cccc(F)c4)nc3)c3ncn(C4CCCC4)c3n2)CC1 (centres unmarked)")
2.39
>>> measured_value("NC1CCC(Nc2nc(NCc3ccc(-c4ccco4)nc3)c3ncn(C4CCCC4)c3n2)CC1 (centres unmarked)")
2.86
>>> measured_value("NC1CCC(Nc2nc(NCc3ccc(-c4cccs4)nc3)c3ncn(C4CCCC4)c3n2)CC1 (centres unmarked)")
3.93

Attention now shifts to the item below.
For this molecule ( OC1CCC(Nc2nc(NCc3ccc(-c4ccco4)nc3)c3ncn(C4CCCC4)c3n2)CC1 (centres unmarked) ), measured Relative caspase-3/7 activity in PLC/PRF/5 cell line is 1.20

Data provenance is patent US20150368248A1.
